system: MS2 coat protein; assay: apparent KD of MS2 coat protein; designed switch direction (-1 OFF switch, 1 ON switch): -1; higher = weaker reporter binding; details: Eterna round: R95; input ligand: none
endpoint: apparent KD of MS2 coat protein (nM)

- ordered residues: "AAUAAUAAGGAGGAUAUCCUAACCGAAAGGUUAGGAGAAGGCCUAACAUGAGGAUCACCCAUGUUCCUCAAUAA [Mat - Exclusion 6 - Eli Mod - D57] (puzzle: Exclusion 6)"
  reading: 118
- ordered residues: "AGAAAGCAAGGAUAUACGAGGAGAAGGUGGAAAGUUAAAGGACAUGAGGAUCACCCAUGUAGAAGGUGCGAGAA [JR_Exclu2_Sub043] (puzzle: Exclusion 2)"
  reading: 55.4
- ordered residues: "GGAGCGAUUCUCUUAGCAGACAUGAGGAUCACCCAUGUAUGCAAGCUCUUAUUUUGCUCGUCUUACCGGGAGUUGCU [Ridizaer] (puzzle: Sensor v3, turn-off variant 1)"
  reading: 13
- ordered residues: "UAGUGGGUACGAAGGAGUUGUAUGAGCGGAGGCUCAGUGACAUGAGGAUCACCCAUGUAGCUUUUUGCUCGUCUUAA [JR_SV3TOV2_Sub038] (puzzle: Sensor v3, turn-off variant 2)"
  reading: 32.4
- ordered residues: "AGACAGUCAGGAUAUACAUGAGGAUCACCCAUGUUAAGAAAAGAAAGGGCAGGAAGAGGUAGAAGGGACAAGAA [JR_Exclu3_Sub032] (puzzle: Exclusion 3)"
  reading: 32.8
- ordered residues: "AGAUAGUUAGGAUAUACAUGAGGAUCACCCAUGUAGAAAAGUGGCUAAUGAGACUCCGGUAGAAGGAACAAAAU [Isanqurama] (puzzle: Exclusion 3)"
  reading: 27.7
- ordered residues: "CAUGAUCUUCGGAUCAUGGACAUGAGGAUCACCCAUGUCACGAGCAGAUCCUCAUGCAAGCUUUUUGCUCGUCUUAU [Sensor v3 - Turn-off variant 1 - 35] (puzzle: Sensor v3, turn-off variant 1)"
  reading: 85.2
- ordered residues: "GAUUAGUGAGGAUAUGGUAAAGAUAAGAUGAUGAAAGAACUCCAGAAGGCACAUGAGGAUCACCCAUGUAGUAG [Mat - Exclusion 4 - Mod of JL - D21] (puzzle: Exclusion 4)"
  reading: 20.1
- ordered residues: "ACCUCACAUGAGGAUCACCCAUGUCAGGAUAUGUACCUGGCCAAGACAAAAGCCAGAAGCAGAAGGGACUGCGG [Enrionerdi] (puzzle: Exclusion 1)"
  reading: 93.6
- ordered residues: "AUACCAUGCCGCCUAAUAGCUUUUUGCUCGUCUUAUAAAACAUGAGGAUCACCCAUGUAAAACAUGUGGCGUGACCC [Maridi] (puzzle: Sensor v3, turn-off variant 2)"
  reading: 97.4
